Listed compounds paired with reported MIC
Tested on: S. epidermidis
Test: MIC testing by broth dilution, S. epidermidis plank
Format: cell-based, Staphylococcus epidermidis
Details: Staphylococcus epidermidis, 24 h, read-out: MIC (μM) S. epidermidis Plank
Counter-ions that a name gives are not always drawn.
Report as a plain number; the unit µM is understood.

Below, 10 compounds whose answers are already recorded.
>>> print(df.to_string())
                                   compound  quantity  observed
0  CC(C)(C)OC(=O)Nc1ccccc1C(=O)Nc1ncc([N+](=O)[O-])s1       MIC       5.5
1  NCCOc1ccsc1C(=O)Nc1ncc([N+](=O)[O-])s1 [VPC162125, hydrochloride]       MIC      91.2
2  O=C(Nc1ncc([N+](=O)[O-])s1)c1cc2ccccc2[nH]1       MIC      13.9
3  NCCOc1ccccc1C(=O)Nc1ncc([N+](=O)[O-])s1 [VPC161219, hydrochloride]       MIC      92.8
4  NCCOC(=O)COc1ccccc1C(=O)Nc1ncc([N+](=O)[O-])s1 [VPC162082, hydrochloride]       MIC      79.4
5  NCCCc1ccccc1C(=O)Nc1ncc([N+](=O)[O-])s1 [VPC162134, hydrochloride]       MIC      93.3
6  O=C(CCCC(=O)Nc1ncc([N+](=O)[O-])s1)Nc1ncc([N+](=O)[O-])s1       MIC      82.8
7      O=C(Nc1ccccc1)Nc1ncc([N+](=O)[O-])s1       MIC      30.3
8    O=C(Nc1ncc([N+](=O)[O-])s1)c1ccc(F)cc1       MIC        15
9  N[C@@H](Cc1ccccc1)C(=O)Nc1ncc([N+](=O)[O-])s1 [VPC16a1028, hydrochloride]       MIC      97.3

Inquiry: Please report the recorded MIC for O=C(O)COc1ccccc1C(=O)Nc1ncc([N+](=O)[O-])s1 .
Reply text: 99

---

Test system: H. pylori
Experiment: MIC testing by broth dilution, H. pylori
Type: cell-based, Helicobacter pylori
Conditions: Helicobacter pylori, 24 h, read-out: MIC (μM) H. pylori
Where a name gives a salt, the structure may show the parent alone.
quantity: MIC (µM)
Field: numeric (µM). Do not append units.

Answered examples (2):
>>> print(df.to_string())
                                 molecule  displayunit  observed
0    O=C(Nc1ccccc1)Nc1ncc([N+](=O)[O-])s1           µM       1.4
1  O=C(Nc1ncc([N+](=O)[O-])s1)c1ccc(F)cc1           µM       0.9

Inquiry: Provide value of MIC for this record tested with H. pylori: NCCOc1ccsc1C(=O)Nc1ncc([N+](=O)[O-])s1 [VPC162125, hydrochloride]
Reply text: 0.7

Inquiry: Recorded MIC for O=C(Nc1ncc([N+](=O)[O-])s1)c1cccnc1F with H. pylori, please?
Reply text: 3.7

Inquiry: Param readout = MIC; param system = H. pylori; param query = O=C(Nc1ncc([N+](=O)[O-])s1)c1cccc(C(F)(F)F)c1 ; response: value
Reply text: 3.5

Inquiry: Can you look up MIC on H. pylori for N[C@@H](Cc1ccccc1)C(=O)Nc1ncc([N+](=O)[O-])s1 [VPC16a1028, hydrochloride] ?
Reply text: 18.3

Inquiry: Observed MIC on H. pylori for NCCCc1ccccc1C(=O)Nc1ncc([N+](=O)[O-])s1 [VPC162134, hydrochloride] , please.
Reply text: 2.9

Inquiry: Short answer please: MIC, H. pylori, entry O=C(Nc1ncc([N+](=O)[O-])s1)c1ccc(Cl)c(C(F)(F)F)c1
Reply text: 2.8

---

Quick reference: MIC of the listed items.
Test system: S. epidermidis
Assay: MIC testing by broth dilution, S. epidermidis plank
Format: cell-based, Staphylococcus epidermidis
Details: broth dilution, Trypticase Soy, 24 h; read-out: MIC (μM) S. epidermidis Plank
Please give a number only; it is taken to be in µM.

Completed entries (count: 6):
                                   molecule  observed
0  CS(=O)(=O)NCCOc1ccccc1C(=O)Nc1ncc([N+](=O)[O-])s1      62.1
1  O=C(NCCOc1ccccc1C(=O)Nc1ncc([N+](=O)[O-])s1)Nc1ccccc1      74.9
2  O=C(Nc1ncc([N+](=O)[O-])s1)C1CC1c1ccccc1 (stereo not drawn)      13.8
3  O=C(Nc1nc(Cl)c([N+](=O)[O-])s1)c1cccc(C(F)(F)F)c1       8.5
4  CC(C)(C)OC(=O)COc1ccc(C(=O)Nc2ncc([N+](=O)[O-])s2)cc1      84.3
5  NCCCCOc1ccccc1C(=O)Nc1ncc([N+](=O)[O-])s1.O=C(O)C(F)(F)F [VPC162096TFA]      35.5

Inquiry: # get_value(readout= MIC, system= S. epidermidis) for CCCCCCNC(=O)COc1ccccc1C(=O)Nc1ncc([N+](=O)[O-])s1
Reply text: 4.9

Inquiry: MIC of O=C(Nc1ncc([N+](=O)[O-])s1)c1ccc(C(=O)C(F)(F)F)cc1 on S. epidermidis?
Reply text: 92.7

Inquiry: Query the reported MIC for S. epidermidis; item: O=C(Nc1ncc([N+](=O)[O-])s1)c1ccc(F)c(F)c1
Reply text: 28.0

---

Test system: C. jejuni
Test: MIC testing by broth dilution, C. jejuni
Type: cell-based, Campylobacter jejuni
Conditions: 2-amino-3,5-dinitrothiophene analogues table; read-out: MIC C. jejuni
quantity: MIC (µM)
The answer is to be given in µM; state only the numeric part.

// solved cases for MIC follow
In [3]: df
Out[3]:
                                   molecule  observed
0  CC(=O)Oc1ccccc1C(=O)Nc1ncc([N+](=O)[O-])s1 [Nitazoxanide, reference compound]      39.1
1  O=C(Nc1sc([N+](=O)[O-])cc1[N+](=O)[O-])c1ccccc1       0.9
2  O=C(Nc1sc([N+](=O)[O-])cc1[N+](=O)[O-])c1cccc(C(F)(F)F)c1       2.1
3  O=C(Nc1sc([N+](=O)[O-])cc1[N+](=O)[O-])c1ccoc1       0.4
4  O=C(Nc1sc([N+](=O)[O-])cc1[N+](=O)[O-])c1ccc(Br)o1       2.8
5  O=C(Nc1sc([N+](=O)[O-])cc1[N+](=O)[O-])c1cccc(C(F)(F)F)c1Cl       1.9

Then there is this molecule:
Inquiry: Which MIC reading was recorded for the molecule O=C(Nc1sc([N+](=O)[O-])cc1[N+](=O)[O-])c1ccc(Br)s1 ?
Reply text: 2.6

---

System: MRSA
Assay: MIC testing by broth dilution, MRSA
Assay type: cell-based, Staphylococcus aureus
Settings: Thiophene analogues table; read-out: MIC MRSA
quantity: MIC (µM)
Provide only the numeric value, understood in µM.

>>> df
                                     smiles  testsystem  observed
0  O=C(Nc1ncc([N+](=O)[O-])s1)c1sc2cc(F)ccc2c1Cl        MRSA       2.1

API: the following record is the query input.
Inquiry: Please tell me: MIC of O=C(Nc1ncc([N+](=O)[O-])s1)c1ccc(-c2ccsc2)s1 , system MRSA?
Reply text: 94.8

---

Below is a list of entries, each paired with its recorded log10(MIC) value.
Tested on: MRSA
Test: MIC testing by broth dilution, MRSA
Type: cell-based, Staphylococcus aureus
Settings: Furan analogues table; read-out: MIC MRSA
// units: µM (pre-log); metric: MIC; scale: log10

Examples from the recorded data:
>>> print(df.to_string())
                                   molecule  testsystem  observed
0  O=C(Nc1ncc([N+](=O)[O-])s1)c1ccc(-c2cccc(F)c2)o1 [VPC16b1115]        MRSA      1.38
1  O=C(Nc1ncc([N+](=O)[O-])s1)c1cc2cc([N+](=O)[O-])ccc2o1 [VPC16a1019]        MRSA      1.68
2  Cc1ccccc1-c1ccc(C(=O)Nc2ncc([N+](=O)[O-])s2)o1 [VPC16a1103]        MRSA      1.08
3  O=C(Nc1ncc([N+](=O)[O-])s1)c1cc(Br)c(Br)o1 [VPC161164]        MRSA      0.58
4  O=C(Nc1ncc([N+](=O)[O-])s1)c1ccc(-c2cccc([N+](=O)[O-])c2)o1 [VPC161190]        MRSA      1.65
5  Cc1cccc(-c2ccc(C(=O)Nc3ncc([N+](=O)[O-])s3)o2)c1 [VPC16b2014]        MRSA      1.99
6  O=C(Nc1ncc([N+](=O)[O-])s1)c1ccc(-c2ccc([N+](=O)[O-])cc2)o1 [VPC161189]        MRSA      1.95
7  O=C(Nc1ncc([N+](=O)[O-])s1)c1ccc([N+](=O)[O-])o1 [VPC16b1007]        MRSA      2.05
8  O=C(Nc1ncc([N+](=O)[O-])s1)c1ccco1 [VPC161124]        MRSA      1.70
9  O=C(Nc1ncc([N+](=O)[O-])s1)c1ccc(-c2ccccc2)o1 [VPC16c1020]        MRSA      2.01

Inquiry: What value of log10(MIC) has been recorded for this entry: O=C(Nc1ncc([N+](=O)[O-])s1)c1ccc(-c2ccc(F)cc2)o1 [VPC16a1104]
Reply text: 1.98

Inquiry: What value of log10(MIC) has been reported for the following molecule? O=C(Nc1ncc([N+](=O)[O-])s1)c1cc2ccccc2o1 [VPC161144]
Reply text: 1.76

Inquiry: // log10(MIC) lookup, key: Cc1ccc(-c2ccc(C(=O)Nc3ncc([N+](=O)[O-])s3)o2)cc1 [VPC16b2019]
Reply text: 1.99

Inquiry: Which log10(MIC) value is on record for O=C(Nc1ncc([N+](=O)[O-])s1)c1ccc(-c2ccccc2Cl)o1 [VPC16b1118] ?
Reply text: 1.06

Inquiry: Please look up its log10(MIC): O=C(Nc1ncc([N+](=O)[O-])s1)c1ccc(-c2cccc(C(F)(F)F)c2)o1 [VPC161197]
Reply text: 1.06

Inquiry: Look up log10(MIC): O=C(Nc1ncc([N+](=O)[O-])s1)c1ccc(-c2ccc3c(c2)OCO3)o1 [VPC16b1132]
Reply text: 1.95

Inquiry: Data request, read-out log10(MIC), for O=C(Nc1ncc([N+](=O)[O-])s1)c1ccc(-c2ccsc2)o1 [VPC16b2022]
Reply text: 2.00

Inquiry: Requested field: log10(MIC). Item: COc1ccc(-c2ccc(C(=O)Nc3ncc([N+](=O)[O-])s3)o2)cc1 [VPC16b1139]
Reply text: 1.97

Inquiry: What log10(MIC) value was documented for this molecule, O=C(Nc1ncc([N+](=O)[O-])s1)c1ccc(-c2cccc(Cl)c2)o1 [VPC16b1119] ?
Reply text: 1.96

Inquiry: What value of log10(MIC) has been recorded for this entry: O=C(Nc1ncc([N+](=O)[O-])s1)c1ccc(-c2ccoc2)o1 [VPC16b1142]
Reply text: 1.42

Data origin: patent US8835644B2
